Measured kon of individual entries
tested on: T1, recombinant human VEGF121 (human, UniProt P15692 27-147)
T1 construct: mature; Isoform VEGF121 of the entry; also called hVEGF121
T1 sequence (looked up): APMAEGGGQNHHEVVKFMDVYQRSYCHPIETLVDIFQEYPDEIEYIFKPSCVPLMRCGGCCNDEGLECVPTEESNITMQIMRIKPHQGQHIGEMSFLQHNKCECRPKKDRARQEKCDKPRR
method notes: Biacore SPR, VEGF immobilized, pH 5
Hi! Could you send only the number? It should be in M⁻¹ s⁻¹, unit omitted.

>  <binder>
567-min (scFv, also called Protein Nr; 884) scFv: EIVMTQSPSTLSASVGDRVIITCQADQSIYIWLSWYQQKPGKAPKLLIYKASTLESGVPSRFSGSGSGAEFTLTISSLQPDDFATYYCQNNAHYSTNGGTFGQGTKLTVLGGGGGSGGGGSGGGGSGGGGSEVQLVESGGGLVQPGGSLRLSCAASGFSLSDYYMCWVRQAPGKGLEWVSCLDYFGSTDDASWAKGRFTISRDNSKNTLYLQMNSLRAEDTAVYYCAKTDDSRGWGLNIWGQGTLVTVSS

>  <kon [M⁻¹ s⁻¹]>
1.89e+06

$$$$
>  <binder>
578-min (scFv, also called EP578 min; Protein Nr; 820) scFv: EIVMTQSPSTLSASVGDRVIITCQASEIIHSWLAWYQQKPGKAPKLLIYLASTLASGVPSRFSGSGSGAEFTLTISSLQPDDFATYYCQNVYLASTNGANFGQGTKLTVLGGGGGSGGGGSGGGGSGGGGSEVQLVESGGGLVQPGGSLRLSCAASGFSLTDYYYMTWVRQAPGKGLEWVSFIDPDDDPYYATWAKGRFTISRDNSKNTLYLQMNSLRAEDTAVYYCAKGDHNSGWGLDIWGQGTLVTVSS

>  <kon [M⁻¹ s⁻¹]>
961000

$$$$

# next binder below
// recorded kon for 511-min (scFv, VL and VH tied by name; also called Protein Nr) scFv: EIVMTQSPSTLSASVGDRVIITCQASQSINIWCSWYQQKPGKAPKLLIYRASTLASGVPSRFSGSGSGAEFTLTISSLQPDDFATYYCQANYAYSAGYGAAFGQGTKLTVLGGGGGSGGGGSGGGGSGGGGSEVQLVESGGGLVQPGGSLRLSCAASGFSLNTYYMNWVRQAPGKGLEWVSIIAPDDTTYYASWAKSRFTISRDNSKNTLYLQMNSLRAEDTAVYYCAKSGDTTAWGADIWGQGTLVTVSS : 778000
